Species on record: Homo sapiens
Test protocol: Selectivity ratio, IC50 for human CYP11B1 to IC50 for human CYP11B2
Documented Ratio IC50 across a set of compounds
The reply should be a number, written without any unit.

{"Compound": "O=C1CCc2cc(-c3cncc4ccccc34)ccc2N1", "Result": 187}
{"Compound": "COC1CCc2cc(-c3cccnc3)ccc2C1 (stereo not given)", "Result": 347}
{"Compound": "OC1CCc2cc(-c3cccnc3)ccc2C1 (stereo not given)", "Result": 112}

Lookup result for CN1CCOc2cc(-c3cccnc3)ccc21 ; measured Ratio IC50: 59

Lookup result for COc1cncc(-c2ccc3c(c2)CCC(=O)N3)c1 ; measured Ratio IC50: 126

Lookup result for S=C1CCc2cc(-c3cccnc3)cc(Cl)c2N1 ; measured Ratio IC50: 183

Lookup result for N#CC1=Cc2ccc(-c3cccnc3)cc2CC1 ; measured Ratio IC50: 181

Lookup result for c1cncc(-c2ccc3c(c2)CCCC3)c1 ; measured Ratio IC50: 68

Lookup result for O=C1CCc2cc(-c3cccnc3)ccc2C1 ; measured Ratio IC50: 496

Lookup result for COc1cncc(-c2ccc3c(c2)CCC(=O)C3)c1 ; measured Ratio IC50: 106
